Biological target: Serine/threonine-protein kinase ULK2 (Homo sapiens)
Sequence (Q8IYT8 whole entry): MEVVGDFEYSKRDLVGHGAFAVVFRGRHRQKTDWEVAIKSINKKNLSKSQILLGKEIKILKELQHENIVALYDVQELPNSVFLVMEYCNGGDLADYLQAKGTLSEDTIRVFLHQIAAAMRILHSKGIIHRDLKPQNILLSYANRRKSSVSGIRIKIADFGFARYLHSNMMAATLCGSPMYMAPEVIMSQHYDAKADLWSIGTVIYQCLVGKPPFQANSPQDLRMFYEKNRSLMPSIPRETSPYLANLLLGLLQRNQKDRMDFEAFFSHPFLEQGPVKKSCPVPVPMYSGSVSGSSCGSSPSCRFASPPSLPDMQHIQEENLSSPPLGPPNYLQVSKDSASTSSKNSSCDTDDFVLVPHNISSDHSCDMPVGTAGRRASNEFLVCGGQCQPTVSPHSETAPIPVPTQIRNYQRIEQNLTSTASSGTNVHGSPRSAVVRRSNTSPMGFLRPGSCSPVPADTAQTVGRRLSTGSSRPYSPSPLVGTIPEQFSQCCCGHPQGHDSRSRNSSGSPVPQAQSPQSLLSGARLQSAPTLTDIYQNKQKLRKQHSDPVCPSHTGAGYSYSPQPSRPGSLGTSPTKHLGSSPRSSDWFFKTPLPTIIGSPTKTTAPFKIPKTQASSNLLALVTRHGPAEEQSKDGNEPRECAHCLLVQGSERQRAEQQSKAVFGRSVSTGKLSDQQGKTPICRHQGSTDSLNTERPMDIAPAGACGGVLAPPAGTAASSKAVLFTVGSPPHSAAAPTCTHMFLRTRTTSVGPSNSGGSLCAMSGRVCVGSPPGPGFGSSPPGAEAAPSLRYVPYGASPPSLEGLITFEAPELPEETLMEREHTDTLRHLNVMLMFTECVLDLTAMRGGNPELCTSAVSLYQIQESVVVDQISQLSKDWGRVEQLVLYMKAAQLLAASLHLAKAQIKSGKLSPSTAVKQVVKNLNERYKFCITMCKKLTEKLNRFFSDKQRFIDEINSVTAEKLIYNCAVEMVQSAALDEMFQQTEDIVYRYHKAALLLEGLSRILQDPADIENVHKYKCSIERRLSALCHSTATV
experimental.endpoint: IC50 (nM)
Give the number; nM is assumed, so skip it.

Q: Using the record for COc1nc(-c2cc(-c3cnn(C)c3)cnc2N)cc2c1C(=O)N(CC(F)(F)F)CC2 , report its IC50.
A: 2080

###

Molecular target: Serine/threonine-protein kinase ULK1 (Homo sapiens)
Sequence (O75385 whole entry): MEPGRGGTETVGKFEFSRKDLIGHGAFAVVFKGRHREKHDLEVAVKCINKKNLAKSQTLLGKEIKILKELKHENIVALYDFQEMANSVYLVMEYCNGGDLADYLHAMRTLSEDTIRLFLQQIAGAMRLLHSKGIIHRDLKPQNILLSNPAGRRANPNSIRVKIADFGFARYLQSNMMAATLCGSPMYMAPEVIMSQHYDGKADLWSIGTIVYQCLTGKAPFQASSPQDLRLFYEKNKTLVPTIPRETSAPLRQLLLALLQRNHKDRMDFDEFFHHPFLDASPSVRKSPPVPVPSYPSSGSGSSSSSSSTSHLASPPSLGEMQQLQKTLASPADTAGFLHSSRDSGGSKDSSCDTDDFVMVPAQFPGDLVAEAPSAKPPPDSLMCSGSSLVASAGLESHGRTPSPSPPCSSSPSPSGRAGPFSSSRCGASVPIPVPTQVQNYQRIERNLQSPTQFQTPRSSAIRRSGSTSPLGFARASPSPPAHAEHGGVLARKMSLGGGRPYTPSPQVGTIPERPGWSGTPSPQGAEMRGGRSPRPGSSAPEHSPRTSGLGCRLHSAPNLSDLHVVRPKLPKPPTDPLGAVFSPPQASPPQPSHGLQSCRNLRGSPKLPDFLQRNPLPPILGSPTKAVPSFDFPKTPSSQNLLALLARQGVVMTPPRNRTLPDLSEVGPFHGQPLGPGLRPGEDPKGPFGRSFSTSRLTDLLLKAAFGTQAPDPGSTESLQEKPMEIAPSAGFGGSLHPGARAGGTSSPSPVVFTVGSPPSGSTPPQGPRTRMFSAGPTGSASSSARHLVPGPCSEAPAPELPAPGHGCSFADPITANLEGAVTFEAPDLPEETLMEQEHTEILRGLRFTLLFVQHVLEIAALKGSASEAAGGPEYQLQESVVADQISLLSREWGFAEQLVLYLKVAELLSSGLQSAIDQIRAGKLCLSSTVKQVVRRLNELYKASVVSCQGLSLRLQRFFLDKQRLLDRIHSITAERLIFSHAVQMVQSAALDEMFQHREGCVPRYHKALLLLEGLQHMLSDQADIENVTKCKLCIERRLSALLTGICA
experimental.endpoint: IC50 (nM)
Give the number; nM is assumed, so skip it.

Q: For Serine/threonine-protein kinase ULK1 (Homo sapiens), provide IC50 of COc1nc(-c2cc(-c3cnn(C)c3)cnc2N)cc2c1C(=O)N(CC(F)(F)F)CC2 please.
A: 586
